Values were extracted from the supplement of paper PMC6555819.

# Test system: PPARg:RXRa 30nM:10nM, anti-RXR (NR concentration 30 nM, RXRa partner concentration 10 nM)
# test: PBM binding z-score (relative to random genomic background probes); higher = stronger binding; sequences stand for … in GC…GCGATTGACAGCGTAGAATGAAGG
readout: PBM binding z-score

1) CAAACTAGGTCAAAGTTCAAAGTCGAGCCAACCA: 12.3
2) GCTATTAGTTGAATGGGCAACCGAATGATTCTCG: -0.146
3) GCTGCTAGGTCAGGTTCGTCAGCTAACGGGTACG: -0.222
4) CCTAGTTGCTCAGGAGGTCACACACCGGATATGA: 0.83
5) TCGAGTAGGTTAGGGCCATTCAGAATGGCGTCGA: 0.497
6) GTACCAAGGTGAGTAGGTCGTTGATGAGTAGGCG: -0.11
7) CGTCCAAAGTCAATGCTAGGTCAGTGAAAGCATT: -0.538
8) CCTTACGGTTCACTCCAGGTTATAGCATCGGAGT: 0.224
9) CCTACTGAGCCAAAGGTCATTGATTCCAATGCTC: 7.32
10) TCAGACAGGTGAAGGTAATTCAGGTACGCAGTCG: 3.9
11) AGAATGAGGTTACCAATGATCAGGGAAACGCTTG: 1.21
12) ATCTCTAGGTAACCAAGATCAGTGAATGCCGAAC: 0.161
13) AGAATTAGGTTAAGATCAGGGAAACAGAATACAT: 1.28
14) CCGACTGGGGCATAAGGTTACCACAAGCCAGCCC: 0.735
15) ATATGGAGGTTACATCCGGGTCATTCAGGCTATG: 0.871
16) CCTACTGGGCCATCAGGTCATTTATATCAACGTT: 1.06
17) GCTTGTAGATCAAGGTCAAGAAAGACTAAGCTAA: 0.697
18) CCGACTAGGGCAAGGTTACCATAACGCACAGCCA: 1.61
19) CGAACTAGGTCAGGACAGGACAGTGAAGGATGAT: 2.35
20) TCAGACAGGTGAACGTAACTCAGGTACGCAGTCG: 3.66
21) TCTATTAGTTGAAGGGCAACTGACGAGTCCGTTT: 3.74
22) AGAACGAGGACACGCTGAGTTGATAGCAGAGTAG: 0.251
23) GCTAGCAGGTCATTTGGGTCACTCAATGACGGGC: 1.29
24) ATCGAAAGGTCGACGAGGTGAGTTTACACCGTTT: 0.726
25) ATCTCTAGGTACCAAGTTCAGTGAAAGAGAGGAC: 0.604
26) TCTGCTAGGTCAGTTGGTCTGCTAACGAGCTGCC: 0.751
